biological target: Tyrosinase (Agaricus bisporus); assay: Uncompetitive inhibition of mushroom tyrosinase using L-tyrosine as substrate by Dixon/Cornish-Bowden plot analysis
MEASURE: pKi
Recall that pKi is obtained by taking minus log10 of the concentration measured in molar.

Q) # return recorded pKi for input "COc1ccc(C(=O)OC[C@H]2O[C@H]3c4c(cc(OC)c(OC)c4OC)C(=O)O[C@@H]3[C@@H](O)[C@@H]2O)cc1O"
A) 3.97

----------
Listed here are compounds together with their documented Ki.
Target: UniProt O42713
Sequence (O42713 whole entry): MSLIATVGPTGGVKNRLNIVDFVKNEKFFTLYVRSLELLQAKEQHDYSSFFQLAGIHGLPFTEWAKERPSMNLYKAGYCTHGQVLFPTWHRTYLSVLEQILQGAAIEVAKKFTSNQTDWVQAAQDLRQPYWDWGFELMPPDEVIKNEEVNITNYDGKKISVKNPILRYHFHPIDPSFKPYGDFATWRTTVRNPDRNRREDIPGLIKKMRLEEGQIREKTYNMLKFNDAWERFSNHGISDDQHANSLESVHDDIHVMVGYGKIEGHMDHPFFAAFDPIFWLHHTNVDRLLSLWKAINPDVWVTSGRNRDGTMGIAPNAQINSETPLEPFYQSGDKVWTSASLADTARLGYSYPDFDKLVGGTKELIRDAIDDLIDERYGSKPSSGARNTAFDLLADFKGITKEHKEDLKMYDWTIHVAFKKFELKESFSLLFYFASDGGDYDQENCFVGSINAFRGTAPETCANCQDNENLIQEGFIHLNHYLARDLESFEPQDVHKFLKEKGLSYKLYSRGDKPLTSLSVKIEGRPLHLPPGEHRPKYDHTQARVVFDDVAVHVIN
Experiment: Mixed inhibition of mushroom tyrosinase using L-tyrosine as substrate by Dixon/Cornish-Bowden plot analysis
Please provide the amount together with its unit, number first.

COc1cc2c(c(OC)c1OC)[C@@H]1O[C@H](COC(=O)c3ccc(O)c(O)c3)[C@@H](O)[C@H](O)[C@H]1OC2=O ... 7.3 µM

Q) Assign Ki to the following record: "COc1cc2c(c(OC)c1OC)[C@@H]1O[C@H](COC(=O)c3ccc(O)cc3)[C@@H](O)[C@H](O)[C@H]1OC2=O"
A) 121 µM
